# System Name: T1, human IL-21R expressed on cells (human, UniProt Q9HBE5 20-538)
# T1 construct: also called human IL-21R-BaF3; human IL-21R-TF1
# T1 sequence (Q9HBE5 20-538 limits assumed): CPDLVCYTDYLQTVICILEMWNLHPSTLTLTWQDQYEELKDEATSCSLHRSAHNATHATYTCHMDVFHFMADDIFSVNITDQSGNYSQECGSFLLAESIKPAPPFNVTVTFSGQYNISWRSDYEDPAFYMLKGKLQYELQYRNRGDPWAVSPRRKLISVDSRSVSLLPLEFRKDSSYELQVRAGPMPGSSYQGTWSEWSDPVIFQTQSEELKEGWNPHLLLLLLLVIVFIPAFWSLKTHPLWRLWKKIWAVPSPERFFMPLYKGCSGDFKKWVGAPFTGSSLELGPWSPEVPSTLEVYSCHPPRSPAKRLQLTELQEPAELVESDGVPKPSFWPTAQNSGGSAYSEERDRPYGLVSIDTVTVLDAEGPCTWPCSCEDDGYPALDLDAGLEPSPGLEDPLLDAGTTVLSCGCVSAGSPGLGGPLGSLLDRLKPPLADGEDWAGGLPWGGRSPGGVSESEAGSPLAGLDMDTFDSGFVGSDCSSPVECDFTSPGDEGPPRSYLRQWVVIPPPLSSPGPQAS
# Test Details: cell ELISA, CHO cells
Measured Quantity: A450 (13 nM Ab) (A450)
Numbers only here, please. The scale is A450.

Query: Using known records, supply A450 (13 nM Ab) for AbN (antibody, IgG1, V domains shown, As for AbA: IgG1/lambda, CDR3 graft, residue limits derived; also called VH6/VL24) VH: QVQLQESGPGLVKPSETLSLTCAVSGYSISSGYYWGWIRQPPGKGLEWIGSISHTGNTYYNPPLKSRVTISVDTSKNQFSLKLSSVTAADTAVYYCARFFGFGRPEYWGQGTLVTVSS VL: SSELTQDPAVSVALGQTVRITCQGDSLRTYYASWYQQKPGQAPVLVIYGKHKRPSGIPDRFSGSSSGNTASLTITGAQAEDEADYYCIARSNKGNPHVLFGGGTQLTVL
Response: 1.21

Query: Provide one value: measured A450 (13 nM Ab) of AbO (antibody, human IgG1, V domains shown, CDR3 graft, residue limits derived as for m29; also called VHP/VL16; VHPTM/VL16) VH: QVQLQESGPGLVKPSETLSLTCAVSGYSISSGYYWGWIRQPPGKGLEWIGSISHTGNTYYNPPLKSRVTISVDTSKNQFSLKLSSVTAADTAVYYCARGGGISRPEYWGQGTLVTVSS VL: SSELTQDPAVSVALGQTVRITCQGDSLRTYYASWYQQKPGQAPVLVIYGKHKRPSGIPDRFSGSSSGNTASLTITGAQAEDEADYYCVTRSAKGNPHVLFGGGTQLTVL
Response: 1.11

Query: Please list A450 (13 nM Ab) recorded for the binder AbL (antibody, IgG1, V domains shown, As for AbA: IgG1/lambda, CDR3 graft, residue limits derived; also called VH3/VL13) VH: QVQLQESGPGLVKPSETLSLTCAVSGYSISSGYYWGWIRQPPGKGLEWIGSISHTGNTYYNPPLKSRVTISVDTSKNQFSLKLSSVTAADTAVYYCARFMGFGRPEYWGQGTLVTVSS VL: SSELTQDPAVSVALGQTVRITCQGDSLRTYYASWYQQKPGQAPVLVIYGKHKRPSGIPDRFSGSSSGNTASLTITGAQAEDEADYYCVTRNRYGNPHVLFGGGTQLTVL
Response: 1.45
